Reported ID is given for each of the following molecules.
system: Mus musculus; experiment: Percent of Pu(IV) retained after 24 hours in whole body of mice under the effect of 30 umol/kg (i.p.) of ligand administered 1 hr after iv injection of Pu(IV) citrate; assay type: functional

| STRUCTURE_AS_SMILES | ID / % |
| --- | --- |
| Cn1ccc(C(=O)NCCN(CCNC(=O)c2ccn(C)c(=O)c2O)CCNC(=O)c2ccn(C)c(=O)c2O)c(O)c1=O | 20 |
| Cn1ccc(C(=O)NCc2cc(CNC(=O)c3ccn(C)c(=O)c3O)cc(CNC(=O)c3ccn(C)c(=O)c3O)c2)c(O)c1=O | 22 |
| Cn1ccc(C(=O)NCCCN(CCCNC(=O)c2ccn(C)c(=O)c2O)CCCNC(=O)c2ccn(C)c(=O)c2O)c(O)c1=O | 33 |
| Cn1ccc(C(=O)NCCN(CCNC(=O)c2ccn(C)c(=O)c2O)CCN(CCNC(=O)c2ccn(C)c(=O)c2O)CCNC(=O)c2ccn(C)c(=O)c2O)c(O)c1=O | 19 |
| Cn1ccc(C(=O)NCCCCCNC(=O)c2ccn(C)c(=O)c2O)c(O)c1=O | 16 |
| Cn1ccc(C(=O)NCCN(CCCN(CCNC(=O)c2ccn(C)c(=O)c2O)CCNC(=O)c2ccn(C)c(=O)c2O)CCNC(=O)c2ccn(C)c(=O)c2O)c(O)c1=O | 24 |

---

# maps each entry to its ID
system: Mus musculus; assay: Percent of Pu(IV) retained after 24 hours in whole body of mice under the effect of 30 umol/kg (i.p.) of ligand administered 1 hr after iv injection of Pu(IV) citrate; type: functional
PARAMETER: ID (%)

| STRUCTURE_AS_SMILES | MEAS_VALUE |
| --- | --- |
| Cn1ccc(C(=O)NCCCCNC(=O)c2ccn(C)c(=O)c2O)c(O)c1=O | 17 |
| Cn1ccc(C(=O)NCCCNC(=O)c2ccn(C)c(=O)c2O)c(O)c1=O | 27 |
| O=C(NCCCN(CCCCN(CCCNC(=O)c1cccc(=O)n1O)C(=O)c1cccc(=O)n1O)C(=O)c1cccc(=O)n1O)c1cccc(=O)n1O | 18 |
| O=C(NCc1cc(CNC(=O)c2cccc(=O)n2O)cc(CNC(=O)c2cccc(=O)n2O)c1)c1cccc(=O)n1O | 47 |
| Cn1ccc(C(=O)NCCOCCNC(=O)c2ccn(C)c(=O)c2O)c(O)c1=O | 16 |
| Cn1ccc(C(=O)NCCCCCCNC(=O)c2ccn(C)c(=O)c2O)c(O)c1=O | 23 |
| Cn1ccc(C(=O)NCCN(CCCCN(CCNC(=O)c2ccn(C)c(=O)c2O)CCNC(=O)c2ccn(C)c(=O)c2O)CCNC(=O)c2ccn(C)c(=O)c2O)c(O)c1=O | 29 |
| CC(=O)N(O)CCCCCNC(=O)CCC(=O)N(O)CCCCCNC(=O)CCC(=O)N(O)CCCCCNC(=O)c1ccn(C)c(=O)c1O | 53 |

---

Listing of recorded ID by entry.
test system: Mus musculus; test: Percent of Pu(IV) retained after 24 hours in kidneys of mice under the effect of 30 umol/kg (i.p.) of ligand administered 1 hr after iv injection of Pu(IV) citrate; type: functional, Kidney
PARAMETER: ID (%)

| STRUCTURE_AS_SMILES | MEASUREMENT_UNIT | MEAS_VALUE |
| --- | --- | --- |
| Cn1ccc(C(=O)NCCN(CCNC(=O)c2ccn(C)c(=O)c2O)CCNC(=O)c2ccn(C)c(=O)c2O)c(O)c1=O | % | 0.7 |
| Cn1ccc(C(=O)NCCN(CCCN(CCNC(=O)c2ccn(C)c(=O)c2O)CCNC(=O)c2ccn(C)c(=O)c2O)CCNC(=O)c2ccn(C)c(=O)c2O)c(O)c1=O | % | 1.6 |
| O=C(NCc1cc(CNC(=O)c2cccc(=O)n2O)cc(CNC(=O)c2cccc(=O)n2O)c1)c1cccc(=O)n1O | % | 1.8 |
| Cn1ccc(C(=O)NCCCN(CCCNC(=O)c2ccn(C)c(=O)c2O)CCCNC(=O)c2ccn(C)c(=O)c2O)c(O)c1=O | % | 0.7 |
| O=C(NCCCN(CCCCN(CCCNC(=O)c1cccc(=O)n1O)C(=O)c1cccc(=O)n1O)C(=O)c1cccc(=O)n1O)c1cccc(=O)n1O | % | 0.2 |
| Cn1ccc(C(=O)NCCCCCNC(=O)c2ccn(C)c(=O)c2O)c(O)c1=O | % | 0.3 |
| Cn1ccc(C(=O)NCCN(CCNC(=O)c2ccn(C)c(=O)c2O)CCN(CCNC(=O)c2ccn(C)c(=O)c2O)CCNC(=O)c2ccn(C)c(=O)c2O)c(O)c1=O | % | 1.3 |

---

system: Mus musculus; assay: % Pu(IV) retained after 24 hours in soft tissue of mice under the effect of 30uM/kg(po, gastric intubation) of ligand administered 3 min after iv injection of Pu(IV) citrate; format: functional
ID values, listed per item
PARAMETER: ID

| STRUCTURE_AS_SMILES | ASSAYED_SYSTEM | PARAMETER | MEAS_VALUE |
| --- | --- | --- | --- |
| Cn1ccc(C(=O)NCCCCCCNC(=O)c2ccn(C)c(=O)c2O)c(O)c1=O | Mus musculus | ID | 6.2% |
| CC(=O)N(O)CCCCCNC(=O)CCC(=O)N(O)CCCCCNC(=O)CCC(=O)N(O)CCCCCNC(=O)c1ccn(C)c(=O)c1O | Mus musculus | ID | 15% |
| Cn1ccc(C(=O)NCc2cc(CNC(=O)c3ccn(C)c(=O)c3O)cc(CNC(=O)c3ccn(C)c(=O)c3O)c2)c(O)c1=O | Mus musculus | ID | 7.5% |
| Cn1ccc(C(=O)NCCOCCNC(=O)c2ccn(C)c(=O)c2O)c(O)c1=O | Mus musculus | ID | 2.9% |
| Cn1ccc(C(=O)NCCCN(CCCNC(=O)c2ccn(C)c(=O)c2O)CCCNC(=O)c2ccn(C)c(=O)c2O)c(O)c1=O | Mus musculus | ID | 4.3% |
| Cn1ccc(C(=O)NCCN(CCCCN(CCNC(=O)c2ccn(C)c(=O)c2O)CCNC(=O)c2ccn(C)c(=O)c2O)CCNC(=O)c2ccn(C)c(=O)c2O)c(O)c1=O | Mus musculus | ID | 1.8% |
| Cn1ccc(C(=O)NCCCNC(=O)c2ccn(C)c(=O)c2O)c(O)c1=O | Mus musculus | ID | 5% |
| Cn1ccc(C(=O)NCCCCCNC(=O)c2ccn(C)c(=O)c2O)c(O)c1=O | Mus musculus | ID | 3.2% |
